Where do these numbers come from? They come from PubChem BioAssay.

Parameter GFP response relative to DMSO: see the listing below.
- METHOD_NOTES: LAP4-GFP expression modulators in yeast, confirmation, cell-based, cherry picks, flow cytometry, mother/daughter gates (AID 2271);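 also: ratio of sample to DMSO plate mean so 100% equals DMSO level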
- CONDITION_DESCRIPTION: S. cerevisiae LAP4-GFP strain, 3 h, measured here: mother cell gate response, at 10 µM, stronger effect = higher value, 100 means same as DMSO control

- COMPOUND: "O=C1Nc2ccccc2C(=O)C1(Cl)Cc1ccccc1 (stereo not drawn)"
  GFP response relative to DMSO (%): 134
- COMPOUND: "CCc1cc(=O)oc2c(CN3CCCC3)c(O)c(Cl)cc12"
  GFP response relative to DMSO (%): 100
- COMPOUND: "O=C(O)c1ccccc1C(=O)N1CCN(c2ccccc2)CC1"
  GFP response relative to DMSO (%): 96.1
- COMPOUND: "O=C(Nc1ccc(NC(=O)c2cc3ccccc3o2)cc1)c1ccc2c(c1)OCCO2"
  GFP response relative to DMSO (%): 97.3
- COMPOUND: "O=C(/C(=C/O)N=Nc1ccc(Cl)cc1)c1ccncc1"
  GFP response relative to DMSO (%): 115
- COMPOUND: "Cc1ccc(C(C[N+](=O)[O-])Sc2ccc(N)cc2)cc1 (stereo not drawn)"
  GFP response relative to DMSO (%): 140
- COMPOUND: "COc1cc(SSc2cc(OC)cc([N+](=O)[O-])c2N)c(N)c([N+](=O)[O-])c1"
  GFP response relative to DMSO (%): 252
- COMPOUND: "O=C(N/N=C/c1ccc(-c2ccc(Br)cc2)o1)c1ccc2c(c1)OCO2"
  GFP response relative to DMSO (%): 98.4
- COMPOUND: "N/C(Cc1ccc(Cl)cc1)=N\\OC(=O)c1cccc2ccccc12"
  GFP response relative to DMSO (%): 188
- COMPOUND: "COC(=O)c1ccc(/C=C/C(=O)c2ccc(OC)cc2)cc1"
  GFP response relative to DMSO (%): 111
- COMPOUND: "Oc1ccc(/C=N/Nc2nc(-c3cccnc3)nc3ccccc23)c(O)c1"
  GFP response relative to DMSO (%): 82.7
- COMPOUND: "O=C(O)c1cccc(S(=O)(=O)N2Cc3ccccc3C2)c1"
  GFP response relative to DMSO (%): 108
- COMPOUND: "COc1ccc(OC)c(/C=C/C(=O)c2ccc(Cl)cc2)c1"
  GFP response relative to DMSO (%): 105
- COMPOUND: "O=C(CSc1cccc[n+]1[O-])c1cc2ccccc2o1"
  GFP response relative to DMSO (%): 137
- COMPOUND: "CCC(=O)Nc1nc(C)c(-c2csc(Nc3cccc(C(=O)O)c3)n2)s1"
  GFP response relative to DMSO (%): 87.3
- COMPOUND: "CC(C)n1c(=S)[nH]c2c1c(=O)[nH]c(=O)n2C"
  GFP response relative to DMSO (%): 101
- COMPOUND: "CCSc1nnc(NC(=O)c2nc(S(=O)(=O)Cc3ccc(F)cc3)ncc2Cl)s1"
  GFP response relative to DMSO (%): 103
- COMPOUND: "Nc1nc(SCC(=O)Nc2cc(C(F)(F)F)ccc2N2CCOCC2)n[nH]1"
  GFP response relative to DMSO (%): 98.3
- COMPOUND: "COc1ccc(-c2csc(N(CC(C)C)C(=O)c3ccco3)n2)cc1"
  GFP response relative to DMSO (%): 100
- COMPOUND: "O=C1c2ccsc2SCCN1Cc1c(F)cccc1Cl"
  GFP response relative to DMSO (%): 113
- COMPOUND: "O=C1C(Cl)=C(N2CCN(Cc3ccccc3)CC2)C(=O)N1c1ccccc1"
  GFP response relative to DMSO (%): 96.2
- COMPOUND: "COc1cc(NC(=O)C(C)C)ccc1NC(=O)c1cc2ccccc2o1"
  GFP response relative to DMSO (%): 94.2
- COMPOUND: "COc1ccc(-n2c(N)c(C(=O)Nc3c(C)n(C)n(-c4ccccc4)c3=O)c3nc4ccccc4nc32)cc1"
  GFP response relative to DMSO (%): 99.4

* * *

- TESTED_ON: ATP-binding cassette sub-family B member 6 (Homo sapiens) (UniProt Q9NP58)
- Sequence (Q9NP58 whole entry, looked up): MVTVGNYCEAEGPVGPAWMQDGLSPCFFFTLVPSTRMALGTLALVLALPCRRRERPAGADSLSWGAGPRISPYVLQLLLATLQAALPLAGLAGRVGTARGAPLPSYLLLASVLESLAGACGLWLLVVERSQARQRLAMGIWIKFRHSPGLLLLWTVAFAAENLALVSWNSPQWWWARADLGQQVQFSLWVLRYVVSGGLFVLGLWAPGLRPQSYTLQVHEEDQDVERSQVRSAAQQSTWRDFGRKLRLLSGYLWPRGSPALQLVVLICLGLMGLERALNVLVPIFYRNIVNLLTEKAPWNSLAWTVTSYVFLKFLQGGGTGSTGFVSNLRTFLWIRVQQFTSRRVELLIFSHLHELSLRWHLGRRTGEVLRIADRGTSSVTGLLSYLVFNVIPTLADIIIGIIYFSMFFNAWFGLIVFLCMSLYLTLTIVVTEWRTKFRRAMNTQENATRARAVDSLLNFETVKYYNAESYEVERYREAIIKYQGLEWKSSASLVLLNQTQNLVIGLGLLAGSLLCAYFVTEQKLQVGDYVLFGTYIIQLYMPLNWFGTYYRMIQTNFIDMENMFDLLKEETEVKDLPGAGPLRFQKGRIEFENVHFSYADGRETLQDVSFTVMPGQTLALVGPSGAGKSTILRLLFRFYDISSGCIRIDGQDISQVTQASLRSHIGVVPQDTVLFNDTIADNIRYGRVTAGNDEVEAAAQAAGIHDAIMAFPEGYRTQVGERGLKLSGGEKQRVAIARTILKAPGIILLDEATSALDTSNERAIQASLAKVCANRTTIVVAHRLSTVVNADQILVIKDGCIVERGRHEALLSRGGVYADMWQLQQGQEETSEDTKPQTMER
- METHOD_NOTES: ABCB6 transporter inhibitors, pilot screen, K562-ABCB6 cells, flow cytometry, validation set (AID 588550);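 also: 0% = DMSO wells and 100% = benzethonium chloride 70 µM positive control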
- CONDITION_DESCRIPTION: K562-ABCB6 porphyrin accumulation, 1 h, at 10 µM, stronger effect = higher value
The source made the active and inactive calls.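 How the source made its calls: active means inhibition above the screen-wide mean plus 3 SD, about 51%; inactive means the rest.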
# reported inhibition; entries follow
PARAMETER_MEASURED: inhibition

- COMPOUND: "C=C(C)c1nc2cc(OC)c(OC)cc2c(=O)o1"
  OBSERVED_VALUE: "11% (inactive)"
- COMPOUND: "COC(=O)c1cc(OC)c(OC)c(OC)c1[N+](=O)[O-]"
  OBSERVED_VALUE: "3% (inactive)"
- COMPOUND: "O=c1ccn([C@@H]2O[C@H](CO)[C@@H](O)[C@H]2O)c(=O)[nH]1"
  OBSERVED_VALUE: "1% (inactive)"
- COMPOUND: "CC/C(=C1/C(=O)CC(C)(C)C(C(=O)OC)C1=O)N1CCCC1 (stereo not given)"
  OBSERVED_VALUE: "11% (inactive)"
- COMPOUND: "CC[N+](C)(CC)CCOC(=O)C(O)(c1ccccc1)C1CCCCC1 (stereo not given)"
  OBSERVED_VALUE: "-1% (inactive)"
- COMPOUND: "CC[C@H]1OC(=O)[C@H](C)[C@@H](O[C@H]2C[C@@](C)(OC)[C@@H](O)[C@H](C)O2)[C@H](C)[C@@H](O[C@@H]2O[C@H](C)C[C@H](N(C)C)[C@H]2O)[C@](C)(O)C[C@@H](C)[C@@H]2N[C@@H](COCCOC)O[C@H]([C@H]2C)[C@]1(C)O"
  OBSERVED_VALUE: "8% (inactive)"
- COMPOUND: "CC(C)(C)c1csc(N/N=C/c2cccnc2)n1"
  OBSERVED_VALUE: "7% (inactive)"
- COMPOUND: "CC(=O)Nc1cc(O)cc(O)c1"
  OBSERVED_VALUE: "6% (inactive)"
- COMPOUND: "Nc1nc2c(ncn2COCCO)c(=O)[nH]1"
  OBSERVED_VALUE: "0% (inactive)"
- COMPOUND: "O=c1c2ccccc2nnn1Cc1cccc2ccccc12"
  OBSERVED_VALUE: "13% (inactive)"
